- Method Summary: Stability in human plasma assessed as half life
- Type: ADME, cell-free
Where a SMILES comes first, the peptide text is derived from it. [ ]: non-standard residue; d: D form. Dopa = N[C@@H](Cc1ccc(O)c(O)c1)C(=O)O
Output MET for half-life not less than 2 h; output NOT MET otherwise.

compound=COC(=O)[C@H](Cc1ccc(O)c(O)c1)NC(=O)[C@H](CS)NC(=O)C(C)(C)S class_name="NOT MET"
compound="COC(=O)[C@H](Cc1ccc(O)c(O)c1)NC(=O)[C@H](CCSC)NC(C)=O (Ac-Met-[Dopa]-OMe)" class_name=MET
compound="COC(=O)[C@H](CCSC)NC(=O)[C@H](Cc1ccc(O)c(O)c1)NC(C)=O (Ac-[Dopa]-Met-OMe)" class_name=MET
compound=COC(=O)[C@H](Cc1ccc(O)c(O)c1)NC(=O)[C@H](CS)NC(=O)[C@@H](CS)NC(C)=O class_name=MET
compound="COC(=O)[C@H](Cc1ccc(O)c(O)c1)NC(=O)[C@H](CS)NC(C)=O (Ac-Cys-[Dopa]-OMe)" class_name="NOT MET"
compound="COC(=O)[C@H](CS)NC(=O)[C@H](Cc1ccc(O)c(O)c1)NC(C)=O (Ac-[Dopa]-Cys-OMe)" class_name="NOT MET"

----------
Entries and their log K values follow.
- Method Summary: Partition coefficient, log K pf the compound
- Assay type: physicochemical
- Experimental Conditions: octanol/water
Where a SMILES comes first, the peptide text is derived from it. [ ]: non-standard residue; d: D form. Dopa = N[C@@H](Cc1ccc(O)c(O)c1)C(=O)O
Assay Readout: log K

compound="COC(=O)[C@H](Cc1ccc(O)c(O)c1)NC(=O)[C@H](CCSC)NC(C)=O (Ac-Met-[Dopa]-OMe)" obs_value=-0.22
compound=COC(=O)[C@H](Cc1ccc(O)c(O)c1)NC(=O)[C@H](CS)NC(=O)C(C)(C)S obs_value=0.2
compound="COC(=O)[C@H](Cc1ccc(O)c(O)c1)NC(=O)[C@H](CS)NC(C)=O (Ac-Cys-[Dopa]-OMe)" obs_value=-0.3
compound="COC(=O)[C@H](CS)NC(=O)[C@H](Cc1ccc(O)c(O)c1)NC(C)=O (Ac-[Dopa]-Cys-OMe)" obs_value=-0.26
compound=COC(=O)[C@H](Cc1ccc(O)c(O)c1)NC(=O)[C@H](CS)NC(=O)[C@@H](CS)NC(C)=O obs_value=-0.11
compound="COC(=O)[C@H](CCSC)NC(=O)[C@H](Cc1ccc(O)c(O)c1)NC(C)=O (Ac-[Dopa]-Met-OMe)" obs_value=-0.25
